target-or-system: T1, recombinant human BCMA-his fusion protein (ACRO Biosystem, Cat. No. BCA-H522y) (human, UniProt Q02223 1-54)
T1 construct: extracellular domain; Bought protein; also called huBCMA-his; hu BCMA-his; not shown: His tag
T1 sequence (looked up): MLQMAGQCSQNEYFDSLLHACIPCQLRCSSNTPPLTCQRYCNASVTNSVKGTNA
test-description: SPR (Biacore T200), anti-His capture on CM5, 1:1 fit
measured-metric: kon (M⁻¹ s⁻¹)
Write it as a number; the unit M⁻¹ s⁻¹ goes unstated.

Requested read-out: kon. Entry: human-mouse chimeric antibody c-mAb1 (antibody, human IgG1, V domains shown, not shown: human IgG1 heavy chain constant region, GenBank No. AK303185.1; human kappa light chain constant region, GenBank No. MG815648.1) VH: EVQLQQSGPELVKPGTSVEMSCKASGYTFTDYNIHWVRQRHGESLEWLGYINPNNGVTNFNQKFKGKATLTVNKSSSTAYMELRSLTSDDSAVYYCSSGLFDGYPFPYWGQGTLVTVSA VL: DIVLTQSPASLVVSLGQRATISCRASKSVSTSGYNYIHWYQQKPGQPPKLLIFLASNLKSGVPARFSGGGSGTDFTLNIHPVEEDDAATYFCQHNRELPYTFGGGTKVEIK
8.18e+06

Attribution: patent US20240117061A1
